Values were extracted from patent US20060276464A1.

# system: SFRP-1 (Homo sapiens, UniProt Q8N474)
# Sequence (Q8N474 32-314): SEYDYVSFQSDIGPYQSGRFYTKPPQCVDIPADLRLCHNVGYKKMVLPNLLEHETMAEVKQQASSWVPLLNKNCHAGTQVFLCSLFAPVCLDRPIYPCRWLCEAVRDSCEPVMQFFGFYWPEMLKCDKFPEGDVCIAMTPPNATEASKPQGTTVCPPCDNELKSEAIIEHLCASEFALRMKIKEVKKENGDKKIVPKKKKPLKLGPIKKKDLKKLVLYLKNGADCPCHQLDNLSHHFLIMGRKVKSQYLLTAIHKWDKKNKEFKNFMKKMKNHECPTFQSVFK
# procedure.details: Cell-based assay for in vitro measurement of SFRP-1/SARP2 antagonist activity (U2OS cells co-transfected with 16x TCF-tk-Luciferase reporter, Wnt and hSFRP-1);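 also: U2OS cells co-transfected with a TCF-tk luciferase reporter, a Wnt vector, hSFRP-1 or empty vector and CMV-βgal, luciferase luminescence read in cell lysates alongside βgal activity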
# conditions: U2OS, read-out: Fold Induction with SFRP-1, Conc 30 μM; with SFRP-1; fold induction over SFRP-1 control, single dose
quantity: fold induction at 30 µM

Here are 3 compounds together with their reported answers.
[Q] Tell me its fold induction at 30 µM given CCOc1ccc(CCNS(=O)(=O)c2cc(S(=O)(=O)c3ccccc3)ccc2C)cc1OC as the entry.
[A] 3.1

[Q] Indicate the recorded fold induction at 30 µM value for this compound: O=S(=O)(NCCCN1CCCC1)c1cccc(S(=O)(=O)c2ccccc2)c1
[A] 1.4

[Q] Input O=C(O)CCNS(=O)(=O)c1cccc(S(=O)(=O)c2ccccc2)c1 , output reported fold induction at 30 µM.
[A] 1.1

a. CCOc1cc(CCNS(=O)(=O)c2cc(S(=O)(=O)c3ccccc3)ccc2C)ccc1OC
b. N#CCCNS(=O)(=O)c1cccc(S(=O)(=O)c2ccccc2)c1
[Q] Two entries are listed, a and b . Which one carries the higher fold induction at 30 µM? State your choice using its label.
[A] a
